Measured EC50 by item
Test system: RS4;11 cells
measurement description: RS4;11 cell viability assay (CellTiter Glo);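 also: acute lymphoblastic leukemia line RS4,11, EC50 derived from percentage of viable cells after treatment relative to untreated controls, cell killing taken as a measure of Bcl-2 inhibition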
Format: cell-based, human
test context: Homo sapiens, RS4-11, 48 h, 50,000 cells per well, 10% human serum, 48 hours; read-out: RS4; 11 EC50 Values

>  <molecule>
CC1(C)CCC(CN2CCN(c3ccc(C(=O)NS(=O)(=O)c4ccc(OC[C@H]5CCN(C6COC6)C5)c([N+](=O)[O-])c4)c(Oc4cnc5[nH]ccc5c4)c3)CC2)=C(c2ccc(Cl)cc2)C1

>  <study target>
RS4;11 cells

>  <comparison symbol>
=

>  <EC50 [µM]>
0.0232

$$$$
>  <molecule>
CC1(C)CCC(CN2CCN(c3ccc(C(=O)NS(=O)(=O)c4ccc(NN5CCN(C(=O)OC(C)(C)C)CC5)c([N+](=O)[O-])c4)c(Oc4cnc5[nH]ccc5c4)c3)CC2)=C(c2ccc(Cl)cc2)C1

>  <study target>
RS4;11 cells

>  <comparison symbol>
>

>  <EC50 [µM]>
1

$$$$
>  <molecule>
CC1(C)CCC(CN2CCN(c3ccc(C(=O)NS(=O)(=O)c4ccc(O[C@@H]5CCN(C(CF)CF)C5)c([N+](=O)[O-])c4)c(Oc4cnc5[nH]ccc5c4)c3)CC2)=C(c2ccc(Cl)cc2)C1

>  <study target>
RS4;11 cells

>  <comparison symbol>
=

>  <EC50 [µM]>
0.0323

$$$$
>  <molecule>
CC1(C)CCC(CN2CCN(c3ccc(C(=O)NS(=O)(=O)c4cnc(OCC5CCOCC5)c(Cl)c4)c(Oc4cnc5[nH]ccc5c4)c3)CC2)=C(c2ccc(Cl)cc2)C1

>  <study target>
RS4;11 cells

>  <comparison symbol>
=

>  <EC50 [µM]>
0.0997

$$$$
>  <molecule>
CC1(C)CCC(CN2CCN(c3ccc(C(=O)NS(=O)(=O)c4ccc(NCC5COCCN5C5CCOC5)c([N+](=O)[O-])c4)c(Oc4cnc5[nH]ccc5c4)c3)CC2)=C(c2ccc(Cl)cc2)C1 (centres unmarked)

>  <study target>
RS4;11 cells

>  <comparison symbol>
=

>  <EC50 [µM]>
0.0527

$$$$
